Biological target: HPK1 (Homo sapiens, UniProt Q92918)
Construct: purchased Signalchem M23-11G
Sequence (Q92918 1-346 limits assumed): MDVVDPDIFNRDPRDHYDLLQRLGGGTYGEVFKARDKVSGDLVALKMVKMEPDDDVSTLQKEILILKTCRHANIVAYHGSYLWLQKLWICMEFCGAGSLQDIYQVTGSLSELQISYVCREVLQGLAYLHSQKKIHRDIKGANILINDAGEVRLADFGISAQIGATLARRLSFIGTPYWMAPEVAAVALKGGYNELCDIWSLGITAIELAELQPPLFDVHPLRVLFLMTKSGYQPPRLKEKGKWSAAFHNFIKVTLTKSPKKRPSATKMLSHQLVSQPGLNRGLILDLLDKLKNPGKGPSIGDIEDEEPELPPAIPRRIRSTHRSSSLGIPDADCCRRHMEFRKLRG
Assay: HPK1 Lantha Binding Assay ("Lanth")
Details: 15 nM Tracer222, read-out: HPK1 Ki (nM) L = Lanth
measuredMetric: log10(Ki) (log10 of the value in nM)
Parameter value (number): base-10 log of Ki in nM.

# example entries with known answers
Cc1ccncc1-c1cc2cc(Nc3ccc(C(=O)N(C)C)cn3)ncc2cn1 [Compound 204]
1.38
Cc1c(-c2cc3cc(Nc4cc5n(n4)CC(=O)N(C(C)C)CC5)ncc3cn2)cnc2c1NCCO2 [Compound 103]
-0.41
Cc1ccncc1-c1cc2cc(Nc3ccc(CCO)cn3)ncc2cn1 [Compound 208]
1.45
Cc1cc(Nc2cc3cc(-c4cnccc4C)ncc3cn2)nc(N)n1 [Compound 210]
0.59

Below: the item to evaluate.
Measured log10(Ki), CNS(=O)(=O)c1ccc(Nc2cc3cc(-c4cnccc4C)ncc3cn2)nc1 [Compound 207] : 1.04

---

Molecular target: HPK full length, T165E S171E (Homo sapiens, UniProt Q92918, S171E/T165E)
Construct: HPK full length, T165E S171E: 0.125 nM
Sequence (Q92918 whole entry T165E/S171E): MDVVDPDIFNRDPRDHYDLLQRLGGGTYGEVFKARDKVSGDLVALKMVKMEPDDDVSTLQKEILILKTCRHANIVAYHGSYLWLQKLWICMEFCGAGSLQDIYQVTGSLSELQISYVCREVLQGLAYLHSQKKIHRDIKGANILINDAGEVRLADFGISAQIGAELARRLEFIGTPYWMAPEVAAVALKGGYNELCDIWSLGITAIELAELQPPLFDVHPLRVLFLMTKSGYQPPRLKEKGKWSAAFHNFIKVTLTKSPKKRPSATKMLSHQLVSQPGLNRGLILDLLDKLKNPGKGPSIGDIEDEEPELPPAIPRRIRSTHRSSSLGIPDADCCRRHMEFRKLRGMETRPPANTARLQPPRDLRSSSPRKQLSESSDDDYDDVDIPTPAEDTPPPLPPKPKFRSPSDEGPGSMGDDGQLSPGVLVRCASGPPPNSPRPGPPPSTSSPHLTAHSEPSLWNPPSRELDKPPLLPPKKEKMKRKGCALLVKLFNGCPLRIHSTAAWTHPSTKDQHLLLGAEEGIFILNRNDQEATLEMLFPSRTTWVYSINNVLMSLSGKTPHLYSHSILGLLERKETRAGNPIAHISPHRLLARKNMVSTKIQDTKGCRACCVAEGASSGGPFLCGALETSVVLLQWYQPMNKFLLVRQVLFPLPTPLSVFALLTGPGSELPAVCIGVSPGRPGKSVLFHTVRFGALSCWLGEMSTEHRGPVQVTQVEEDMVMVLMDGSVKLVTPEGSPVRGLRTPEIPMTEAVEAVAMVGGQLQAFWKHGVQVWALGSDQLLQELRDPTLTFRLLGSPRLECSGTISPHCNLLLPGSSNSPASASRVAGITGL
Assay: HPK1-FL HTRF Enzymatic Assay ("HTRF")
Type: biochemical
Details: ATP 1 mM, read-out: HPK1 Ki (nM) H = HTRF
measuredMetric: log10 Ki (log10 of the value in nM)
Note the log scale: values are log10 of Ki expressed in nM.

Consider the following illustrative entries.
Cc1c(N)cncc1-c1cc2cc(Nc3cc4n(n3)CC(=O)N(C(C)C)CC4)ncc2c(C)n1 [Compound 106]
0.40
Cc1ccncc1-c1cc2cc(Nc3cc(C(=O)N(C)C)c(N)cn3)ncc2cn1 [Compound 201]
2.67
Cc1c(N)cncc1-c1cc2cc(Nc3cc4n(n3)CC(=O)N(C)CC43CC3)ncc2c(C)n1 [Compound 101]
-0.57

Here are 2 molecules. What values of log10 Ki were reported for them?
1. Cc1c(-c2cc3cc(Nc4cc5n(n4)CC(=O)N(C)CC54CC4)ncc3c(C)n2)cnc2c1NCCO2 [Compound 109]
2. CNCc1cc(C)c(-c2cc3cc(Nc4cc5n(n4)CC(=O)N(C)CC5)ncc3cn2)c(F)c1 [Compound 110]

Response:
[-1.52, 1.11]

---

Target: HPK full length, T165E S171E (Homo sapiens, UniProt Q92918, S171E/T165E)
Construct: HPK full length, T165E S171E: 0.125 nM
Assay: HPK1-FL HTRF Enzymatic Assay ("HTRF")
Type: biochemical
Details: ATP 1 mM, read-out: HPK1 Ki (nM) H = HTRF
Experimental: Example B1: HPK1-FL HTRF Enzymatic Assay (“HTRF”) HPK-FL enzyme phosphorylates Biotin-SLP-76 substrate in the presence of ATP at 1 mM and varying concentrations of test compound. Product is detected by FRET using Eu-anti-pSLP76 Ab and SA-XL665. […] To a 384 well Proxiplate with 80 nL compound or DMSO spotted on was added 4 μl/well kinase mix. […] The plates were then loaded onto a Perkin Elmer Envision and the TR-FRET signal was measured at 615 and 665 nm. […]
Answer each item with its documented Ki.
Numbers only, in nM.

Guide cases for Ki, answers given:
Cc1c(N)cncc1-c1cc2cc(Nc3cc4n(n3)CC(=O)N(CC(F)F)CC4)ncc2cn1
4
Cc1c(-c2cc3cc(Nc4cc5n(n4)CC(=O)N(C)CC5)ncc3c(C)n2)cnc2c1NCCO2
0.66
Cc1c(N)cncc1-c1cc2cc(Nc3cc4n(n3)CC(=O)N(C(C)C)CC4)ncc2cn1
2.3
Cc1c(N)cncc1-c1cc2cc(Nc3cc4n(n3)Cc3nccn3CC4)ncc2c(C)n1
0.85
Cc1ccncc1-c1cc2cc(Nc3ccc(S(C)(=O)=O)cn3)ncc2cn1
291

Consider the following items and state reported Ki for each.
1. COc1nc(-c2cnc3c(c2C)NCCO3)cc2cc(Nc3cc4n(n3)CC(=O)N(C)CC4)ncc12
2. Cc1ccncc1-c1cc2cc(Nc3ccc(CO)cn3)ncc2cn1

Response:
[2.1, 577]
